ASSAYED TARGET: T1, cynomolgus IL-36γ, truncated (cynomolgus macaque (Macaca fascicularis), UniProt Q9NZH8 18-167 (human entry), limits assumed)
T1 construct: Untagged after removal of the His-SUMO tag; also called cynomolgus IL-36 gamma; cyIL-36gamma
T1 chain: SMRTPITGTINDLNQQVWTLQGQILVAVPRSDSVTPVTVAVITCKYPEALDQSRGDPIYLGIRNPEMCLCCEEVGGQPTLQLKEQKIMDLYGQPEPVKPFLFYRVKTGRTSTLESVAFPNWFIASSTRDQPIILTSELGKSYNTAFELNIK
PROTOCOL NOTES: SPR, Biacore, 1:1 Langmuir fit
READOUT NAME: Kd (nM)
Write it as a number; the unit nM goes unstated.

Data request: Could you tell me which Kd is on file for 144D464A LV11re HV10b (antibody, V domains shown, Humanized) VH: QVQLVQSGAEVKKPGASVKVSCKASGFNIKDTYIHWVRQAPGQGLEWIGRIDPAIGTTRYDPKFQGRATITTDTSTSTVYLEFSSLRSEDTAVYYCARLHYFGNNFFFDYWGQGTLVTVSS VL: QAVVTQEPSLTVSPGGTVTLTCRSSSGAVTTSNYANWVQEKPGQLFAGLIGGTNDRAPGVPARFSGSLLGGKAALTISGAQPEDEAIYFCALWFSNHWVFGGGTKLTVL ?
Data returned: 1.04

Data request: How about 144D464A (antibody, V domains shown, Mouse monoclonal from hybridoma; mouse IgG heavy and lambda light chain; also called mouse antibody 144D464A) VH: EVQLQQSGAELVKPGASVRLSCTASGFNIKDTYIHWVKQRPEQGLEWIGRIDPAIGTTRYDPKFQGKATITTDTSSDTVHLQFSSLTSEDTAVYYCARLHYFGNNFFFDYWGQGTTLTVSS VL: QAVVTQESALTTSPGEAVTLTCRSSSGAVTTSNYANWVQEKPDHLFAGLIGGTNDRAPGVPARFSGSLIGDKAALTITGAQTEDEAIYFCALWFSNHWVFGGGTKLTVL ?
Data returned: 0.865

Data request: 144D464A LV9are HV10b (antibody, V domains shown, Humanized) VH: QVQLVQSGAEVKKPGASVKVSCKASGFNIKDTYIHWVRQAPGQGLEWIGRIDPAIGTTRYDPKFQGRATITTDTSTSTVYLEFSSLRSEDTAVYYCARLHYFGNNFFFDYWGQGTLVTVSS VL: QAVVTQEPSLTVSPGGTVTLTCRSSSGAVTTSNYANWVQEKPGQLFAGLIGGTNDRAPGVPARFSGSLLGGKAALTLSGAQPEDEADYFCALWFSNHWVFGGGTKLTVL ?
Data returned: 1.13

Data request: And the next one, 144D464A LV7a HV10b (antibody, V domains shown, Humanized; also called humanized 144D464A antibody LV7a HV10b) VH: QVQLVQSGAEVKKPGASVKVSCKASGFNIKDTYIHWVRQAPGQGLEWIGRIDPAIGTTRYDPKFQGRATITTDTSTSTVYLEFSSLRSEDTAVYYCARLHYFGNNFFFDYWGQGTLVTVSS VL: QAVVTQEPSLTVSPGGTVTLTCRSSSGAVTTSNYANWVQQKPGQAFAGLIGGTNDRAPGVPARFSGSLLGGKAALTISGAQPEDEADYFCALWFSNHWVFGGGTKLTVL ?
Data returned: 1.18
